target: T1, human GPC3 (human, UniProt P51654 25-563)
T1 construct: range 25-563; soluble analyte; also called soluble human GPC3; glypican 3
T1 sequence (P51654 25-563 limits assumed): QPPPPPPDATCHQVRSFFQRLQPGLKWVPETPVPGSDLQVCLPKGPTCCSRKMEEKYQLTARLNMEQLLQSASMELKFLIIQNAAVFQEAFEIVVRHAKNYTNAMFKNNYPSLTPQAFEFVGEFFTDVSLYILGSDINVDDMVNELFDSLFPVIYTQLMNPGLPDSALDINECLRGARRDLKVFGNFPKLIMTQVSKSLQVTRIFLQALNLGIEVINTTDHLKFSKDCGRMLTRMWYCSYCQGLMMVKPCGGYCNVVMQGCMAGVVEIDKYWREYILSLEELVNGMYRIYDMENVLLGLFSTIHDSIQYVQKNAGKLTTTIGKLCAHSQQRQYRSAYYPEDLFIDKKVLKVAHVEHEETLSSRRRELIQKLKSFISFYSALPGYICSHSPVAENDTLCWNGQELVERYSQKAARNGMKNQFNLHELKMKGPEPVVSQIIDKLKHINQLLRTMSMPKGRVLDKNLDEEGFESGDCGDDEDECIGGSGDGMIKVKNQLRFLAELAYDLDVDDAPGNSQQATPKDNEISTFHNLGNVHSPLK
measurementDescription: SPR
Reported pKd values for a set of binders
The scale used: pKd is minus the common logarithm of the concentration in molar units.

* H0610-G1dh/none-Hi-Kn010G3/L0203-k0 (antibody, V domains shown, one-arm) VH: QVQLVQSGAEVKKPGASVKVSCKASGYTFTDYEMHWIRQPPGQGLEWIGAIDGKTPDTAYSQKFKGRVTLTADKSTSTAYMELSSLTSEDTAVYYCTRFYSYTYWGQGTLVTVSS VL: DIVMTQSPLSLPVTPGEPASISCRSSQSPVHSNRNTYIHWYQQKPGQAPRLLIYKVSNRFSGVPDRFSGSGSGTDFTLKISRVEAEDVGVYYCGQGTQVPYTFGQGTKLEIKR | 8.68
* H0610-G1dh/none-Hi-Kn010G3/L0122-k0 (antibody, V domains shown, one-arm) VH: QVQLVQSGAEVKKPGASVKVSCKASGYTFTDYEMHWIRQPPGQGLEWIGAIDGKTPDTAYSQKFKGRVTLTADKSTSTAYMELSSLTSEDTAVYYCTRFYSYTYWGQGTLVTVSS VL: DIVMTQSPLSLPVTPGEPASISCRSSQSLVHSNRNTYLHWYQQKPGQAPRLLIYKVSNRISGVPDRFSGSGSGTDFTLKISRVEAEDVGVYYCGQGTQVPYTFGQGTKLEIK | 8.62
* GCH025-G1dh/none-Hi-Kn010G3/L0000-k0 (antibody, V domains shown, one-arm) VH: QVQLVQSGAEVKKPGASVTVSCKASGYTFTDYEMHWIRQPPGEGLEWIGAIDGETPDTAYSQKFKGRVTLTADKSTSTAYMELSSLTSEDTAVYYCTRFYSYTYWGQGTLVTVSS VL: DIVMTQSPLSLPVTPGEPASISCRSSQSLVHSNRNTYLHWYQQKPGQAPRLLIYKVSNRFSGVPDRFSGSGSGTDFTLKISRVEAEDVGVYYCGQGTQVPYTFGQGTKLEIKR | 8.30

So for H0610-G1dh/none-Hi-Kn010G3/L0003-k0 (antibody, V domains shown, one-arm) VH: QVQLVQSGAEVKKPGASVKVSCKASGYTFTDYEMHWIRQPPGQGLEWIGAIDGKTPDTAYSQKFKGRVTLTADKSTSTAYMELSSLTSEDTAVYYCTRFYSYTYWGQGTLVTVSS VL: DIVMTQSPLSLPVTPGEPASISCRISQSLVHSNRNTYLHWYQQKPGQAPRLLIYKVSNRFSGVPDRFSGSGSGTDFTLKISRVEAEDVGVYYCGQGTQVPYTFGQGTKLEIK , the logged pKd turned out to be 8.40

pKd reported for this binder H0610-G1dh/none-Hi-Kn010G3/L0208-k0 (antibody, V domains shown, one-arm) VH: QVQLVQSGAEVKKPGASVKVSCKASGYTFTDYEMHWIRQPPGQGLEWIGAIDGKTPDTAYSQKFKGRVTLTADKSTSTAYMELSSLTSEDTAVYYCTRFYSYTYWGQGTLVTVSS VL: DIVMTQSPLSLPVTPGEPASISCRSSQSPVHSNRNTYLHWYQQKPGQAPRLLIYKVSNRFWGVPDRFSGSGSGTDFTLKISRVEAEDVGVYYCYQGTQVPYTFGQGTKLEIKR : 9.28
